- target entity: GSK3β (H350L) (Homo sapiens (Human))
- condition notes: read-out: GSK3β Ki
property name: pKi
// pKi here means minus log10 of the molar concentration (mol/L)

## Input Notebook entry, GSK3β (H350L) (Homo sapiens (Human)) assay: pKi of CCC(C)(C)NC(=O)O[C@@H]1CC[C@H](c2cc(NC(=O)Cc3ncc(C)o3)n[nH]2)C1 = ?
## Output 7.62

## Input Query Cn1cc(CC(=O)Nc2cc([C@H]3CC[C@@H](OC(=O)NC(C)(C)C)C3)[nH]n2)cn1 next
## Output 7.40

## Input Query CCCNC(=O)O[C@H]1CC[C@@H](c2cc(NC(=O)Cc3ccc(OC)cn3)n[nH]2)C1 next
## Output 8.02

## Input Query CCCNC(=O)O[C@@H]1CC[C@H](c2cc(NC(=O)Cc3cc(OC)ncc3S(C)(=O)=O)n[nH]2)C1 next
## Output 6.88

## Input Query CC[C@H](C)NC(=O)O[C@@H]1CC[C@H](c2cc(NC(=O)Cc3cccc(C)c3S(C)(=O)=O)n[nH]2)C1 next
## Output 6.94

## Input Query CC[C@H](C)NC(=O)O[C@@H]1CC[C@H](c2cc(NC(=O)c3ccnn3CCN(C)C)[nH]n2)C1 next
## Output 6.83

## Input Query CCC(C)(C)NC(=O)O[C@@H]1CC[C@H](c2cc(NC(=O)Cc3cnn(C)c3)n[nH]2)C1 next
## Output 7.37

## Input Query CCCCNC(=O)O[C@@H]1CC[C@H](c2cc(NC(=O)Cc3ccno3)n[nH]2)C1 next
## Output 7.76

## Input Query CC[C@H](C)NC(=O)O[C@@H]1CC[C@H](c2cc(NC(=O)Cc3ccnc(C)c3)n[nH]2)C1 next
## Output 7.62

## Input Query COc1cnc(CC(=O)Nc2cc([C@H]3CC[C@@H](OC(=O)NC(C)(C)C)C3)[nH]n2)cn1 next
## Output 7.41

## Input Query COc1ccc(CC(=O)Nc2cc([C@@H]3CC[C@H](OC(=O)NC4CCOCC4)C3)[nH]n2)cc1 next
## Output 7.90

## Input Query COc1ccc(CC(=O)Nc2cc([C@H]3CC[C@@H](OC(=O)NC4(C)CC4)C3)[nH]n2)nc1 next
## Output 7.77

## Input Query COc1ccc(CC(=O)Nc2cc([C@H]3CC[C@@H](OC(=O)N4CCC4(C)C)C3)[nH]n2)cn1 next
## Output 8.90

## Input Query COc1cc(CC(=O)Nc2cc([C@H]3CC[C@@H](OC(=O)NC(C)C)C3)[nH]n2)ccn1 next
## Output 7.48

## Input Query COc1cc(CC(=O)Nc2cc([C@H]3CC[C@@H](OC(=O)N4C[C@@H](O)[C@@H]4C)C3)[nH]n2)ccn1 next
## Output 8.10

----------
- target entity: GSK3β (H350L) (Homo sapiens (Human), UniProt P49841)
- Sequence (P49841 whole entry, stated change not applied): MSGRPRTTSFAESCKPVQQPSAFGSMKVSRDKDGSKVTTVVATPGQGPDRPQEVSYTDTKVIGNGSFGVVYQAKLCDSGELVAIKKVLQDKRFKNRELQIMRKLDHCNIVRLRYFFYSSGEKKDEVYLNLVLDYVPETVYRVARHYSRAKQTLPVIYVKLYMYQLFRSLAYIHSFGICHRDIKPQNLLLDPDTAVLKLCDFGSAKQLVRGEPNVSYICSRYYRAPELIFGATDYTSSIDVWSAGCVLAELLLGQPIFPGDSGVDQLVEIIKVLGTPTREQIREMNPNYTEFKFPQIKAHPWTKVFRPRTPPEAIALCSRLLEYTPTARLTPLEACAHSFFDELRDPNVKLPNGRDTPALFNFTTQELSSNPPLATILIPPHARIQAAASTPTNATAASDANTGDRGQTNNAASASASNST
- protocol text: biochemical
- condition notes: GSK3β Ki (nM)
property name: Ki (nM)
Provide only the numeric value, understood in nM.

## Input Given the compound COc1cc(CC(=O)Nc2cc([C@H]3CC[C@@H](OC(=O)NC(C)CC(F)(F)F)C3)[nH]n2)ccn1 (single isomer, unassigned) [Example 78] , what is its reported Ki?
## Output 8.9

## Input Query COc1cc(CC(=O)Nc2cc([C@H]3CC[C@@H](OC(=O)NC(C)CC(F)F)C3)[nH]n2)ccn1 (single isomer, unassigned) next
## Output 21.6

## Input Query Cc1cc(CC(=O)Nc2cc([C@H]3CC[C@@H](OC(=O)NC(C)CC(F)(F)F)C3)[nH]n2)on1 (single isomer, unassigned) [Example 72] next
## Output 12.8

## Input Query CC1(NC(=O)O[C@@H]2CC[C@H](c3cc(NC(=O)Cc4cc(F)cc(F)c4)n[nH]3)C2)CCOC1 (single isomer, unassigned) [Example 120] next
## Output 34.9

## Input Query Cc1ncc(CC(=O)Nc2cc([C@H]3CC[C@@H](OC(=O)NC4(C)CCOC4)C3)[nH]n2)s1 (single isomer, unassigned) [Example 481] next
## Output 44.6

## Input Query CC(CC(F)(F)F)NC(=O)O[C@@H]1CC[C@H](c2cc(NC(=O)Cc3ccn(C)n3)n[nH]2)C1 (single isomer, unassigned) next
## Output 17.9

----------
- target entity: CDK2/Cyclin E1 full length (Homo sapiens (Human), UniProt P24941)
- protocol text: CDK2/Cyclin E1 full length mobility shift assay
property name: Ki (nM)
Provide only the numeric value, understood in nM.

## Input Given the molecule COc1ccc(CC(=O)Nc2cc([C@H]3CC[C@@H](OC(=O)N4C[C@@H](C#N)[C@@H]4C)C3)[nH]n2)cn1 (single isomer, unassigned) [Example 157] , what is its reported Ki?
## Output 1.86

## Input Query CCC1CCN1C(=O)O[C@@H]1CC[C@H](c2cc(NC(=O)Cc3cc(C)no3)n[nH]2)C1 (single isomer, unassigned) [Example 597] next
## Output 0.54

## Input Query CC[C@H](C)NC(=O)O[C@@H]1CC[C@H](c2cc(NC(=O)Cc3cncc(C)n3)n[nH]2)C1 [Example 336] next
## Output 0.39

## Input Query COc1cnc(CC(=O)Nc2cc([C@H]3CC[C@@H](OC(=O)NC(C)CC(F)(F)F)C3)[nH]n2)cn1 (single isomer, unassigned) [Example 68] next
## Output 0.36

## Input Query CC[C@H](C)NC(=O)O[C@@H]1CC[C@H](c2cc(NC(=O)Cc3cn(C)nn3)n[nH]2)C1 [Example 331] next
## Output 1.49

## Input Query CCC(CO)CNC(=O)O[C@@H]1CC[C@H](c2cc(NC(=O)Cc3cc(C)no3)n[nH]2)C1 (single isomer, unassigned) [Example 524] next
## Output 1.69

----------
- target entity: CDK2/Cyclin E1 full length (Homo sapiens (Human))
- protocol text: CDK2/Cyclin E1 full length mobility shift assay
Exercise: state measured Ki for each of the compounds provided.
Provide only the numeric value, understood in nM.

## Input Given the compound CC(C)NC(=O)O[C@@H]1CC[C@H](c2cc(NC(=O)C3COc4ccccc43)n[nH]2)C1 (single isomer, unassigned) [Example 57] , what is its reported Ki?
## Output 3.54

## Input Query CC[C@H](C)NC(=O)O[C@@H]1CC[C@H](c2cc(NC(=O)Cc3cnc(OC)cn3)n[nH]2)C1 next
## Output 0.37

## Input Query CC[C@H](C)NC(=O)O[C@@H]1CC[C@H](c2cc(NC(=O)Cc3scnc3C)n[nH]2)C1 next
## Output 0.74

## Input Query COc1cc(CC(=O)Nc2cc([C@H]3CC[C@@H](OC(=O)NC(C)C)C3)[nH]n2)ccn1 next
## Output 0.64

## Input Query Cc1cnc(CC(=O)Nc2cc([C@H]3CC[C@@H](OC(=O)NC4(C)CC4)C3)[nH]n2)c(Cl)c1 next
## Output 2.5

## Input Query COc1ccc(S(C)(=O)=O)c(CC(=O)Nc2cc([C@H]3CC[C@@H](OC(=O)NC(C)C(F)(F)F)C3)[nH]n2)c1 (single isomer, unassigned) [Example 291] next
## Output 0.43

## Input Query CCC(NC(=O)O[C@@H]1CC[C@H](c2cc(NC(=O)Cc3ccnc(OC)c3)n[nH]2)C1)C(F)(F)F (single isomer, unassigned) [Example 405] next
## Output 1.37

## Input Query CC[C@H](C)NC(=O)O[C@@H]1CC[C@H](c2cc(NC(=O)Cc3ncc(C)o3)n[nH]2)C1 next
## Output 0.41

## Input Query Cn1ccc(CC(=O)Nc2cc([C@H]3CC[C@@H](OC(=O)N4CCCC4(C)C)C3)[nH]n2)n1 [Example 136] next
## Output 0.22

## Input Query CCCNC(=O)O[C@H]1CC[C@@H](c2cc(NC(=O)Cc3c[nH]cn3)n[nH]2)C1 next
## Output 2.28

## Input Query CC(CC(F)(F)F)NC(=O)O[C@@H]1CC[C@H](c2cc(NC(=O)c3ccnn3CCN(C)C)[nH]n2)C1 (single isomer, unassigned) [Example 409] next
## Output 4.15

## Input Query CC(C)NC(=O)O[C@H]1CC[C@@H](c2cc(NC(=O)Cc3ccno3)n[nH]2)C1 next
## Output 0.52

## Input Query COCc1cc(C(=O)Nc2cc([C@H]3CC[C@@H](OC(=O)NC4(CC(F)(F)F)CC4)C3)[nH]n2)n(C)n1 next
## Output 0.38

## Input Query COc1ccc(CC(=O)Nc2cc([C@H]3CC[C@@H](OC(=O)N4C[C@H](O)[C@H]4C)C3)[nH]n2)cn1 next
## Output 0.28

----------
- target entity: CDK2/Cyclin E1 full length (Homo sapiens (Human))
- protocol text: CDK2/Cyclin E1 full length mobility shift assay
Exercise: state measured Ki for each of the compounds provided.
Provide only the numeric value, understood in nM.

## Input Given the compound Cc1nnc(CC(=O)Nc2cc([C@H]3CC[C@@H](OC(=O)NC(C)(C)C)C3)[nH]n2)o1 [Example 298] , what is its reported Ki?
## Output 0.68

## Input Query CC[C@H](C)NC(=O)O[C@@H]1CC[C@H](c2cc(NC(=O)Cc3ccnc(OC)c3)n[nH]2)C1 [Example 37] next
## Output 0.19

## Input Query COc1cnc(CC(=O)Nc2cc([C@H]3CC[C@@H](OC(=O)NC(C)(C)C)C3)[nH]n2)cn1 [Example 109] next
## Output 0.68

## Input Query CC(C)NC(=O)O[C@@H]1CC[C@H](c2cc(NC(=O)Cc3cnn(C)c3)n[nH]2)C1 [Example 60] next
## Output 0.33

## Input Query CC[C@H](C)NC(=O)O[C@@H]1CC[C@H](c2cc(NC(=O)Cc3nc(C)cs3)n[nH]2)C1 [Example 343] next
## Output 0.77

## Input Query COc1ncc(CC(=O)Nc2cc([C@H]3CC[C@@H](OC(=O)NC(C)C)C3)[nH]n2)s1 [Example 281] next
## Output 0.33

## Input Query COc1ccc(CC(=O)Nc2cc([C@H]3CC[C@@H](OC(=O)N4CCC4C)C3)[nH]n2)cn1 (single isomer, unassigned) [Example 152] next
## Output 1.06

## Input Query CC[C@H](C)NC(=O)O[C@@H]1CC[C@H](c2cc(NC(=O)Cc3c(C)noc3C)n[nH]2)C1 [Example 340] next
## Output 2.24

## Input Query CCCNC(=O)O[C@H]1CC[C@@H](c2cc(NC(=O)c3ccnn3C)n[nH]2)C1 [Example 163] next
## Output 0.32

## Input Query C[C@@H](CF)NC(=O)O[C@@H]1CC[C@H](c2cc(NC(=O)Cc3cnn(C)c3)n[nH]2)C1 [Example 378] next
## Output 0.83

## Input Query COc1ncc(CC(=O)Nc2cc([C@H]3CC[C@@H](OC(=O)NC4(C)CCOC4)C3)[nH]n2)s1 (single isomer, unassigned) [Example 127] next
## Output 0.23

## Input Query CC1(NC(=O)O[C@@H]2CC[C@H](c3cc(NC(=O)Cc4ccno4)n[nH]3)C2)CCCC1 [Example 117] next
## Output 0.14

## Input Query Cc1cnc(CC(=O)Nc2cc([C@H]3CC[C@@H](OC(=O)NC(C)(C)C)C3)[nH]n2)o1 [Example 11] next
## Output 0.32

## Input Query COc1ncc(CC(=O)Nc2cc([C@H]3CC[C@@H](OC(=O)N4CCOC[C@@H]4C)C3)[nH]n2)s1 [Example 646] next
## Output 1.03

## Input Query CC1(NC(=O)O[C@@H]2CC[C@H](c3cc(NC(=O)Cc4cnc(C(F)(F)F)cn4)n[nH]3)C2)CC1 [Example 130] next
## Output 0.25
